Tested on: G-401
ASSAY SUMMARY: Cell viability (CellTiter-Glo) IC50 on tumor cell lines
Format: cell-based
STUDY CONDITIONS: Homo sapiens, 72 h; G-401, 3 days of culture; read-out: Inhibitory effect on cell line (IC50)
Where a name gives a salt, the structure may show the parent alone.
PROPERTY LABEL: IC50 (nM)
Your answer should be a plain number; it is taken to be in nM.

Previously resolved entries follow.
Req: Please give the measured IC50 for this compound: Cc1c2[n+](cc3cc4c(cc13)OCO4)CCc1cc3c(cc1-2)OCO3
Resp: 2300

Req: Given COc1ccc2cc3[n+](cc2c1OCC(=O)OC(C)(C)C)CCc1cc2c(cc1-3)OCO2 , state its recorded IC50.
Resp: 1100

Req: What measured IC50 goes with CCCOc1c(OC)ccc2cc3[n+](cc12)CCc1cc2c(cc1-3)OCO2 ?
Resp: 1000

Req: Query: IC50; subject: C=CCOc1c(OC)ccc2cc3[n+](cc12)CCc1cc2c(cc1-3)OCO2
Resp: 1600

Req: Please give the measured IC50 for this compound: COc1ccc2cc3[n+](cc2c1OC)CCc1cc2c(cc1-3)OCO2 [Berberine hydrochloride, reference compound]
Resp: 1120

# next compound below
Req: Query: IC50; subject: c1c2c(cc3c1OCO3)-c1cc3ccc4c(c3c[n+]1CC2)OCO4 [Coptisine hydrochloride]
Resp: 3400
